test: Tmax in Sprague-Dawley rat at 33 mg/kg, po administered as suspension using HPMC formulation; format: ADME, organism-based; settings: in vivo
assay_readout: Tmax (h)
Numbers only, in h.

[ask] I am curious: what Tmax value has been reported for O=C(NNS(=O)(=O)c1ccccc1F)c1cc(F)cc(-c2ccccn2)c1 ?
[reply] 1

###

experiment: Drug excretion in Sprague-Dawley rat urine at 31 mg/kg, po using PEG400/Solutol HS-15/water formulation; type: ADME, organism-based; settings: read-out: Drug excretion
assay_readout: dose excreted (%)
One number for each entry, in %.

[ask] I am curious: what dose excreted value has been reported for O=C(NNS(=O)(=O)c1ccccc1F)c1cc(F)cc(-c2ccccn2)c1 [WM-1119] ?
[reply] 0.078

###

assay: Kinetic solubility of the compound in phosphate buffer at pH 6.5 by nephelometry; assay type: physicochemical; settings: read-out: Kinetic_solubility
For each of the molecules below, state its solubility kinetic.

# annotated cases, reported solubility kinetic shown
molecule	solubility kinetic
C=CCOc1ccc(F)c(C(=O)NNS(=O)(=O)c2ccccc2)c1	50 to 100 µg/mL
Cc1cc(C(=O)NNS(=O)(=O)c2ccccc2F)cc(-n2cccn2)c1	12.5 to 25 µg/mL
CC(C)Oc1cccc(C(=O)NNS(=O)(=O)c2ccccc2F)c1	50 to 100 µg/mL
Cc1cc(C(=O)NNS(=O)(=O)c2ccccc2F)cc(-c2ccco2)c1	6.3 to 12.5 µg/mL
O=C(NNS(=O)(=O)c1ccccc1F)c1cccc(-n2cccn2)c1	50 to 100 µg/mL
CCOc1cc(C)cc(C(=O)NNS(=O)(=O)c2ccccc2F)c1	12.5 to 25 µg/mL
O=C(NNS(=O)(=O)c1ccccc1F)c1cccc(-c2ccccn2)c1	12.5 to 25 µg/mL
Cc1cc(-n2nccn2)cc(C(=O)NNS(=O)(=O)c2ccccc2)c1F	25 to 50 µg/mL

I'm hoping you can list solubility kinetic for every molecule here, please.
1. CCOc1cc(C)c(F)c(C(=O)NNS(=O)(=O)c2ccccc2)c1
2. O=C(NNS(=O)(=O)c1ccccc1F)c1cc(F)cc(-c2ccccn2)c1 [WM-1119]
3. O=C(NNS(=O)(=O)c1ccccc1F)c1cc(F)cc(-n2cccn2)c1
4. Cc1cc(-n2cccn2)cc(C(=O)NNS(=O)(=O)c2ccccc2)c1F
5. Cc1cc(OC(C)C)cc(C(=O)NNS(=O)(=O)c2ccccc2F)c1
6. Cc1cc(-c2ncccn2)cc(C(=O)NNS(=O)(=O)c2ccccc2)c1F
7. Cc1cc(-c2ccccn2)cc(C(=O)NNS(=O)(=O)c2ccccc2)c1F

[reply]
["12.5 to 25 µg/mL", "25 to 50 µg/mL", "25 to 50 µg/mL", "6.3 to 12.5 µg/mL", "12.5 to 25 µg/mL", "50 to 100 µg/mL", "6.3 to 12.5 µg/mL"]

[ask] I am curious: what solubility kinetic value has been reported for Cc1cc(C(=O)NNS(=O)(=O)c2ccccc2F)cc(-c2ccccn2)c1 ?
[reply] 12.5 to 25 µg/mL

###

experiment: Tmax in Swiss mouse at 30 mg/kg, ip by UPLC analysis; type: ADME, organism-based; conditions: in vivo
assay_readout: Tmax
Respond with the figure and its unit, in that order.

[ask] I am curious: what Tmax value has been reported for Cc1cc(-c2ncccn2)cc(C(=O)NNS(=O)(=O)c2ccccc2)c1F ?
[reply] 16.8 min

Origin of measurements: ChEMBL document CHEMBL4402574
